System: HCV replicon cells
EXPERIMENT_DESCRIPTION: HCV replicon FRET / luciferase assay (96-well plates)
Format: cell-based
CONDITION_LABEL: Hepatitis C virus, Table 1b; HCV replicon; read-out: EC50
pEC50: −log10 of the molar value.
For each entry below, report its pEC50 value.

// lookup pEC50 for CNC(=O)c1c(-c2ccc(F)cc2)oc2ccc(-c3cc(C(=O)NC4(c5ccncc5)CC4)ccc3C)cc12 [drawing 501]
> 6.60

// lookup pEC50 for CNC(=O)c1c(-c2ccc(F)cc2)oc2ccc(-c3cc(C(=O)NC4(c5nnc(-c6cccnc6)[nH]5)CC4)ccc3C)cc12
> 6.60

// lookup pEC50 for CNC(=O)c1c(-c2ccc(F)cc2)oc2cc(N)c(-c3cccc(C(=O)NCC(C)C)c3)cc12
> 6.60

// lookup pEC50 for CNC(=O)c1c(-c2ccc(F)cc2)oc2cc(NS(C)(=O)=O)c(/C=C/C(=O)OC(C)(C)C)cc12
5.00 to 6.00

###

System: HCV replicon cells
EXPERIMENT_DESCRIPTION: HCV replicon FRET / luciferase assay (96-well plates)
Assay type: cell-based
CONDITION_LABEL: Hepatitis C virus, Table 1a; HCV replicon; read-out: EC50
pEC50: −log10 of the molar value.
ENDPOINT: pEC50

// lookup pEC50 for CNC(=O)c1c(-c2ccc(F)cc2)oc2ccc(-c3cccc(C(=O)N(C)CCO)c3)cc12
5.00 to 6.00

// lookup pEC50 for CNC(=O)c1c(-c2ccc(F)cc2)oc2ccc(OCC(=O)NCc3nc4ccccc4s3)cc12
5.00 to 6.00

// lookup pEC50 for CNC(=O)c1c(-c2ccc(F)cc2)oc2ccc(-c3cccc(C(=O)NC4CCC(C)CC4)c3)cc12 (centres unmarked)
> 6.60

// lookup pEC50 for CNC(=O)c1c(-c2ccc(F)cc2)oc2ccc(-c3cccc(C(=O)N(C)C(C)(C)C)c3)cc12
> 6.60

// lookup pEC50 for CNC(=O)c1c(-c2ccc(F)cc2)oc2ccc(-c3cccc(C(=O)N4CCc5ccccc54)c3)cc12
6.00 to 6.60

// lookup pEC50 for CNC(=O)c1c(-c2ccc(F)cc2)oc2ccc(-c3cc(C(=O)NCC(C)C)ccc3OC3CCC3)cc12
6.00 to 6.60

// lookup pEC50 for CNC(=O)c1c(-c2ccc(F)cc2)oc2ccc(-c3cccc(C(=O)N4CC[C@@H](O)C4)c3)cc12
5.00 to 6.00

// lookup pEC50 for CNC(=O)c1c(-c2ccc(F)cc2)oc2ccc(-c3cccc(C(=O)Nc4c(O)ncnc4O)c3)cc12
< 5.00

###

Test system: HCV replicon cells
EXPERIMENT_DESCRIPTION: HCV replicon FRET / luciferase assay (96-well plates)
Assay type: cell-based
CONDITION_LABEL: Hepatitis C virus, Table 1b; HCV replicon; read-out: EC50
ENDPOINT: EC50

Recall the recorded EC50 for CNC(=O)c1c(-c2ccc(F)cc2)oc2ccc(-c3cc(C(=O)NC4(c5nnc(C(F)(F)F)[nH]5)CC4)ccc3C)cc12 with HCV replicon cells and state it.
< 250 nM

Recall the recorded EC50 for CNC(=O)c1c(-c2ccc(F)cc2)oc2cc(N(C)S(C)(=O)=O)c(-c3cccc(C(=O)NC(C)(C)c4ccccc4)c3)cc12 with HCV replicon cells and state it.
< 250 nM

Recall the recorded EC50 for CNC(=O)c1c(-c2ccc(F)cc2)oc2ccc(-c3ccc(-c4ccc5cc[nH]c5c4)c(C(=O)NCC(C)C)c3)cc12 with HCV replicon cells and state it.
< 250 nM

Recall the recorded EC50 for CCCOc1ccc(C(=O)NCC(C)C)cc1-c1ccc2oc(-c3ccc(F)cc3)c(C(=O)NC)c2c1 with HCV replicon cells and state it.
250 to 1000 nM

Recall the recorded EC50 for CNC(=O)c1c(-c2ccc(F)cc2)oc2ccc(-c3ccc(-c4ccccc4COC)c(C(=O)NCC(C)C)c3)cc12 with HCV replicon cells and state it.
< 250 nM

Recall the recorded EC50 for CNC(=O)c1c(-c2ccc(F)cc2)oc2cc(N(CCO)S(C)(=O)=O)c(-c3cccc(C(=O)NC(C)(C)c4nc(C)no4)c3)cc12 with HCV replicon cells and state it.
< 250 nM

Recall the recorded EC50 for CNC(=O)c1c(-c2ccc(F)cc2)oc2ccc(-c3cc(C(=O)NC(C)(C)C)c(OC)cc3C)c(F)c12 with HCV replicon cells and state it.
< 250 nM

Recall the recorded EC50 for CNC(=O)c1c(-c2ccc(F)cc2)oc2ccc(-c3cc(OCc4ccco4)cc(C(=O)NCC(C)C)c3)cc12 with HCV replicon cells and state it.
1000 to 10000 nM

Recall the recorded EC50 for CNC(=O)c1c(-c2ccc(F)cc2)oc2ccc(-c3cc(C(=O)NC4(c5nnc(-c6ccc(Cl)cc6)[nH]5)CC4)ccc3C)cc12 with HCV replicon cells and state it.
< 250 nM

Recall the recorded EC50 for CNC(=O)c1c(-c2ccc(F)cc2)oc2ccc(-c3cc(C(=O)NC4(c5nc(C)no5)CC4)ccc3C)cc12 [drawing 478] with HCV replicon cells and state it.
< 250 nM

Recall the recorded EC50 for CNC(=O)c1c(-c2ccc(F)cc2)oc2cc(N(CCO)S(C)(=O)=O)c(-c3cccc(C(=O)NC(C)(C)C)c3)cc12 with HCV replicon cells and state it.
< 250 nM

Recall the recorded EC50 for CNC(=O)c1c(-c2ccc(F)cc2)oc2ccc(-c3ccc(-c4cccnc4)c(C(=O)NCC(C)C)c3)cc12 with HCV replicon cells and state it.
< 250 nM

Recall the recorded EC50 for CNC(=O)c1c(-c2ccc(F)cc2)oc2cc(N(CCO)S(C)(=O)=O)c(-c3cc(C(=O)NC4(c5ccccc5)CC4)ccc3C)cc12 with HCV replicon cells and state it.
< 250 nM

Recall the recorded EC50 for CNC(=O)c1c(-c2ccc(F)cc2)oc2ccc(-c3cccc(C(=O)NC(C)(C)c4ccc(Cl)cc4)c3)cc12 with HCV replicon cells and state it.
< 250 nM

Recall the recorded EC50 for CNC(=O)c1c(-c2ccc(F)cc2)oc2ccc(-c3cc(C(=O)NCC(C)C)ccc3OC3CCCC3)cc12 with HCV replicon cells and state it.
1000 to 10000 nM

Recall the recorded EC50 for CNC(=O)c1c(-c2ccc(F)cc2)oc2ccc(-c3cc(OC(C)C)cc(C(=O)NCC(C)C)c3)cc12 with HCV replicon cells and state it.
> 10000 nM

Recall the recorded EC50 for CNC(=O)c1c(-c2ccc(F)cc2)oc2ccc(-c3cc(NC(=O)C4(c5ccccc5)CC4)ccc3C)cc12 with HCV replicon cells and state it.
250 to 1000 nM

Recall the recorded EC50 for CNC(=O)c1c(-c2ccc(F)cc2)oc2ccc(-c3cc(OCCC4CCCNC4)cc(C(=O)NCC(C)C)c3)cc12 (centres unmarked) with HCV replicon cells and state it.
< 250 nM

Recall the recorded EC50 for CNC(=O)c1c(-c2ccc(F)cc2)oc2ccc(-c3cc(OCCc4cccnc4)cc(C(=O)NCC(C)C)c3)cc12 with HCV replicon cells and state it.
1000 to 10000 nM

Recall the recorded EC50 for CNC(=O)c1c(-c2ccc(F)cc2)oc2ccc(-c3cc(C(=O)NCC(C)C)ccc3OC(F)(F)F)cc12 with HCV replicon cells and state it.
> 10000 nM

Recall the recorded EC50 for CNC(=O)c1c(-c2ccc(F)cc2)oc2ccc(-c3cccc(-c4nc(-c5ccccc5)c[nH]4)c3)cc12 with HCV replicon cells and state it.
< 250 nM

Recall the recorded EC50 for CNC(=O)c1c(-c2ccc(F)cc2)oc2ccc(-c3cc(C(=O)NCC(C)C)ccc3OCCCN3C(=O)c4ccccc4C3=O)cc12 with HCV replicon cells and state it.
> 10000 nM

Recall the recorded EC50 for CNC(=O)c1c(-c2ccc(F)cc2)oc2cc(N)c(-c3cc(C(=O)NC4(c5ccccc5)CC4)ccc3OC)cc12 with HCV replicon cells and state it.
< 250 nM

Recall the recorded EC50 for CNC(=O)c1c(-c2ccc(F)cc2)oc2ccc(-c3ccc(-c4cncc(N)c4)c(C(=O)NCC(C)C)c3)cc12 with HCV replicon cells and state it.
250 to 1000 nM

Recall the recorded EC50 for CNC(=O)c1c(-c2ccc(F)cc2)oc2cc(N(CCO)S(C)(=O)=O)c(-c3cccc(C(=O)NC(C)(C)c4ccncc4)c3)cc12 with HCV replicon cells and state it.
< 250 nM

Recall the recorded EC50 for CNC(=O)c1c(-c2ccc(F)cc2)oc2ccc(-c3cc(C(=O)NCC(C)C)ccc3OCc3ccncc3)cc12 with HCV replicon cells and state it.
< 250 nM
